Listed here: items and their measured KD ratio pH 5.5/7.4.
molecular target: T1, human PCSK9 (human, UniProt Q8NBP7 31-692, limits assumed); experiment: SPR Biacore 3000, KD at pH 5.5 over KD at pH 7.4
T1 construct: also called hPCSK9; huPCSK9
T1 sequence (Q8NBP7 31-692 limits assumed): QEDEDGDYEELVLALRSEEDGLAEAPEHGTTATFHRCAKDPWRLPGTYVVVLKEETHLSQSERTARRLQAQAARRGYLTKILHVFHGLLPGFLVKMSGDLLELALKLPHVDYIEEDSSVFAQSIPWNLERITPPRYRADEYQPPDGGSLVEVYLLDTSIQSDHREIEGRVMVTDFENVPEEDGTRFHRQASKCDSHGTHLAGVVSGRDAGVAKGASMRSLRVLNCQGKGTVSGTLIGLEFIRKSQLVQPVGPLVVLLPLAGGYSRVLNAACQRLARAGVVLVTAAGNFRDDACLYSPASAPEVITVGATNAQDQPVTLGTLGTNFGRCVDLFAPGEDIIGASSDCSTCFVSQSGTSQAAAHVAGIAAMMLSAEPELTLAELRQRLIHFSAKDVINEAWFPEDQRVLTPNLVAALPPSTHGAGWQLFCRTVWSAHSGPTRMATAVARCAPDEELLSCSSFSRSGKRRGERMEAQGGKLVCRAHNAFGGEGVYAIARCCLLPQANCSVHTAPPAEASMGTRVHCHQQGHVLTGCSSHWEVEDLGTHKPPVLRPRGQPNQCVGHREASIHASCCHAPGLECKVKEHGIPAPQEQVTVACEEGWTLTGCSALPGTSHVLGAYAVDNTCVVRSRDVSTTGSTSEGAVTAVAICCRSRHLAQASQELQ
Field format: numeric only.

Any idea what its KD ratio pH 5.5/7.4 is? The binder is 6L21H2335 (antibody, V domains shown) VH: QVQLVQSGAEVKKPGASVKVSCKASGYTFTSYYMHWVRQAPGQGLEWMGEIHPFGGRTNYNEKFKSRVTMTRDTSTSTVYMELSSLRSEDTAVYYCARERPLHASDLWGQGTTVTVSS VL: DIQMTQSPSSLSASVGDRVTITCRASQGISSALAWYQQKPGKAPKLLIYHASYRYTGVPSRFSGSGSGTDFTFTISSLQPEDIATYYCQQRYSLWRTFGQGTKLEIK 2.9

Which KD ratio pH 5.5/7.4 is reported for this binder? 5L1724H23_6L3 (antibody, V domains shown, Only CDRs printed; Full-length IgG) VH: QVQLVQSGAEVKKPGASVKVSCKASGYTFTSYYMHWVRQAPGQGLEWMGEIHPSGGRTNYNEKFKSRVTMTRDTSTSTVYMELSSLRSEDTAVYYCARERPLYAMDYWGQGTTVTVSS VL: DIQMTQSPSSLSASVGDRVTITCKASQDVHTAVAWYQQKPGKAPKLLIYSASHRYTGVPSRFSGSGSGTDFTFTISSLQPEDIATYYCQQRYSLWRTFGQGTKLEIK 24.5

Read the next record carefully.
State the recorded KD ratio pH 5.5/7.4 for this entry: 5L1721H23 (antibody, V domains shown, Triple histidine mutant of h5A10; Only CDRs printed; Full-length IgG) VH: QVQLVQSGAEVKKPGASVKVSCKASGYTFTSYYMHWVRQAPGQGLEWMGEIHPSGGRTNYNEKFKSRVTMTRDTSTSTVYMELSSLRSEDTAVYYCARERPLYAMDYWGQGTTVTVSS VL: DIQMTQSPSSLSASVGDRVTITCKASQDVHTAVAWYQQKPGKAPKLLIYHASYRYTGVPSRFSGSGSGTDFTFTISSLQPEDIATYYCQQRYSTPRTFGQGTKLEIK 11.1
